- Tested on: MS2 coat protein
- assay_info: apparent KD of MS2 coat protein, switch ON state; designed switch direction (-1 OFF switch, 1 ON switch): 1; higher = weaker reporter binding
- settings: FMN input: 0 or 200 uM; Eterna round: R93 (includes R88 designs)
So basically: apparent KD of MS2 coat protein at 20 nM or higher? That is 1 (yes). Lower than 20 nM? That is 0 (no).

Illustrative cases are given below, each with its answer.
ordered_residues: UCAGUGCCGACGAAGGAUAUAGCGGGUGAGACAUGAGGAUCACCCAUGUAUGCAGAACUCAUCCUCUAGAAGGUUGAGACGGCAA [Onaaror]
tested_target: MS2 coat protein
assigned_class: 1 (yes)
//
ordered_residues: AGAAAUAAAACACAGGAUAUCCAAAAGAAAACAUGAGGAUCACCCAUGUAAAAGAAAAUAAAAUGGGAGAAGGGUGAAAAUAAAG [Breaking Jandersonlee's winner (80%)]
tested_target: MS2 coat protein
assigned_class: 1 (yes)

Task item: Could you verify whether the entry AACAAUCUAUCUGAGGAUAUCAUGUCAAAGACAUGAGGAUCACCCAUGUACCAGGAAACUGGAUAUGAGAAGGCAGAUAGAUUGA [SS2: 1119] shows apparent KD of MS2 coat protein of no less than 20 nM?
Reply: 0 (no)

Task item: Could you verify whether the entry UAUAGACAUGAGGAUCACCCAUGUAGAAUUAUGGGAGGAUAUACAAAGACGAGAGUCAGAGUAGAAGGCCUAGGAU [salish99-ss1-154] shows apparent KD of MS2 coat protein of no less than 20 nM?
Reply: 1 (yes)

Task item: Could you verify whether the entry GAAAAACAUGAGGAUCACCCAUGUGUAAAUAUGGGAGGAUAUACAAAGACGUAAGUCAGAGUAGAAGGCCUAAAAG [Garnet 93] shows apparent KD of MS2 coat protein of no less than 20 nM?
Reply: 1 (yes)

---

Measured apparent KD of K4 kissing-loop reporter by item
- Test system: K4 kissing-loop RNA reporter
- assay_info: apparent KD of K4 kissing-loop reporter; higher = weaker reporter binding
- settings: Eterna round: R107; input ligand: tryptophan 2.4 mM
Give just the number in nM; leave the unit off.

ordered_residues: AAGGGCUAGGCGGCCGCCACUGGUCGUGUACACAUACGAACCAGUGAUGUUGGUAUUGUAUGCGGCAGGACCGGGCCUAGCCGAA [Exclusion - Tryptophan B (Freestyle 26)]
display_unit: nM
apparent KD of K4 kissing-loop reporter: 405

ordered_residues: AGUGAUGUUGUGUUGUGUUAGGGAAGUGAUCGAGGACCGGUACGGCCGCCACUCGAGUGAUGAGUGAGUGAUGUUUGUUUAGGGA [whbob_SS_Tryp_A_m8]
display_unit: nM
apparent KD of K4 kissing-loop reporter: 375

ordered_residues: AAAUAGAUCAGUCAUCCAGUGAUGUUGGAAGGAGCGUGCGAAAGCACAGGUAGGUCGCCGAAAUAAAAGUGGCUGAUCAAAAUAA
display_unit: nM
apparent KD of K4 kissing-loop reporter: 102

Task item: Report apparent KD of K4 kissing-loop reporter, nothing else, for this sequence: GCAAGAGAGUGAUGUUGUUUUGAUCAGGGCAAGGAUAUGCUAUAUAGCAGAAGGUGCCGUUUUCUGCUGGCUUUCGUUACCCAUU [theeternabot_exclusion_KL_FMN_A_6]
Reply: 708

Task item: Report apparent KD of K4 kissing-loop reporter, nothing else, for this sequence: UGAUACCAGACGGCCGCCACUCCCGUAAGUCAAAGACUUACGAAGAGAGUUGUCCAGUGAUGUUGGAGGACCGGGUCUGGUAUCU [FiskerMod 13 - Jieux - Exclusion - Tryptophan B]
Reply: 260

Task item: Report apparent KD of K4 kissing-loop reporter, nothing else, for this sequence: GGAGGGAUCUCGGCCGCCACUCAUAAGAAAUGGGCCUCAGGGAUAUAGUGAUGUUAUGUAAAGAAGAGGACCGGGAGAAAGAAGG [ExTryptoB.Dc]
Reply: 175

Task item: Report apparent KD of K4 kissing-loop reporter, nothing else, for this sequence: GCCGUAGAUGGAAGGAGCGUGUCAAAGUGAUGUUUUGAUUAACUCCCUUAGGGAAAGAUGGCACAGGUAGGUCGCCAUCUACGGC
Reply: 90.4

Task item: Report apparent KD of K4 kissing-loop reporter, nothing else, for this sequence: UGACUGGACUGAAGGAGCGCUAAACUCCUAGUGAUGUUAGGAAAUACGAGACAAAGUCUCGGGCAGGUAGGUCGCAGUCUAGUCU [ArgBS 19 #SwitchBubble #StaticStem]
Reply: 101

Task item: Report apparent KD of K4 kissing-loop reporter, nothing else, for this sequence: AUGCGCGCGGCGGCCGCCACUCGCAUGAGAGUGAUGUUCUCGCCGGGCCCGAAAGGGCCCGGUGUGAGGACCGGGCCGGGCUGCG [#2 Same State - Tryptophan B Attempt #15 (HarryS)]
Reply: 237

Task item: Report apparent KD of K4 kissing-loop reporter, nothing else, for this sequence: CUUGGAAAGACGGCCGCCACUGGCCAGUGAUGUUGGCCCACCAGGUAAGCCAAGAAGCUUGACGUCAGGACCGGGUCCUAGGAAU [Exclusion TRyptophan B GF 23]
Reply: 359

Task item: Report apparent KD of K4 kissing-loop reporter, nothing else, for this sequence: UGAUACCAGACUGAUACCAGCGAGUGAUGUUCGUUGAAAUCAGGGUCAAAGACCCUGUCUCGCCCUUGGCAGCAGUCUGGUAUCU [TheoBX 22 #SwitchBubble #StaticStem]
Reply: 785

---

- Tested on: K4 kissing-loop RNA reporter;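 also: bound reporter read as fluorescence of individual clusters on recovered sequencing chips by microscopy, with normalized cluster intensities fitted with a binding model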
- assay_info: apparent KD of K4 kissing-loop reporter; higher = weaker reporter binding
- settings: Eterna round: R107; input ligand: none
measured_metric: apparent KD of K4 kissing-loop reporter (nM)
Give just the number in nM; leave the unit off.

Please review the following examples before continuing.
ordered_residues: AAUAUAGUGAUGUUAUAUAAGAAGGAGUUACGAGGACCGGUACGGCCGCCACUCGAAACGAGUGAGGAUUUGGGAGAUUGGGUUC [SSTryptA.L]
apparent KD of K4 kissing-loop reporter, nM: 393
//
ordered_residues: CGCGCUGCCUGAGGAUAUAGAAACGAGUGAUGUUCGUGGACAAGAGCCAGUGAUGUUGGGUUAUUUCUAGAAGGCAGGCGAUCGU [Exclusion FMN B GF5]
apparent KD of K4 kissing-loop reporter, nM: 128
//
ordered_residues: AAGAAUAAUCUUGCAGUGAUGUUGCAAGAUACCAGCAUCGAAAGAUGCCCUUGGCAGCUUGAAACUGCAAGAAUCAAGCUGAAUA [Design1]
apparent KD of K4 kissing-loop reporter, nM: 140

Task item: Report apparent KD of K4 kissing-loop reporter, nothing else, for this sequence: GCGAACAUUCGCAGUGAUGUUGCGACGGAAGGAGCGCGUGAAAACGCAGGUAGGUCGCCGACAUACUUAAUUUUACAGUGUUCGC [Arginine A K4 29]
Reply: 294

Task item: Report apparent KD of K4 kissing-loop reporter, nothing else, for this sequence: UAUAUAUGAUGUGAUACCAGUGAAGAGCCAGUGAUGUUGGUAGAACUGGUAUAUAAAUAACACCCUUGGCAGCACAAUCACGUAU [whbob_Ex_Theo_B_sa97]
Reply: 170

Task item: Report apparent KD of K4 kissing-loop reporter, nothing else, for this sequence: AAAUAGAUCAGUCACCCAGUGAUGUUGGAAGGAGCGUGCGAAAGCACAGGUAGGUCGCCAGAAUAAAAUUGGCUGAUCAAAAUAA
Reply: 212

Task item: Report apparent KD of K4 kissing-loop reporter, nothing else, for this sequence: AGAUUCGACACGGCCGCCACUCGUGGUGGAUUACCGAGUGUCGAAGUUGAGUGAUGUUCAAGUACGAGGACCGGGUGUUGAGUCU [KL-XTryp-B9 #analogue]
Reply: 198

Task item: Report apparent KD of K4 kissing-loop reporter, nothing else, for this sequence: CAUUCAGUGAUGUUGGAAGGCGAGCGGGAUACCAGCGGAGACUCACGCCCUUGGCAGCCCAUAUAUCCCAGGUAGAUAAUAGUUC [Same State - Theophylline A (Freestyle 5)]
Reply: 217

Task item: Report apparent KD of K4 kissing-loop reporter, nothing else, for this sequence: GUAGACAGACUGCAAGCCUAGUCUACAGACUAGGAUAUCAGGAAACUGAGAAGGAGUCUACUUGCAGUGAUGUUGCAAGAAUAAU [[F]''-[K]'-[F]'-[F1]-[F2]-[K1]-[K2]_Design4]
Reply: 121

Task item: Report apparent KD of K4 kissing-loop reporter, nothing else, for this sequence: UGAUACCAGACUGAUACCAGCGAGUGAUGUUCGUUGAAAUCAGGGUCAAAGACCCUGUCUCGCCCUUGGCAGCAGUCUGGUAUCU [TheoBX 22 #SwitchBubble #StaticStem]
Reply: 829

Task item: Report apparent KD of K4 kissing-loop reporter, nothing else, for this sequence: CGGCUUAGUAGCGCGAGUUGACGUGCCAUCCGAGGACCGGUACGGCCGCCACUCGUGAUCUGUUAAAGUGAUGUUUUAAUGCCAU
Reply: 712

Task item: Report apparent KD of K4 kissing-loop reporter, nothing else, for this sequence: CCGCCAUCGUCAGAUACCAGGCUGAUGGCGGUAACCGCCAAGCGAGUGAUGUUCGCAUCAGUCCCUUGGCAGCUGACGAAGACUG [#16 K4 Theophylline B Same State]
Reply: 190

Task item: Report apparent KD of K4 kissing-loop reporter, nothing else, for this sequence: UGACAUUGCUCAGAUACCAGACAAGAGGAUCACCCUUGUGCCAAACGUACAAUAAUAAUUGUCCCUUGGCAGCUGAGCAAUGUCU [TheoBX 14]
Reply: 16.3

Task item: Report apparent KD of K4 kissing-loop reporter, nothing else, for this sequence: UGUCAUUGGUCGGCCGCCACUCCGUAACGAGUGAUGUUCUAAAAGACGGAUCGAAAGAUCUGUCGGAGGACCGGGACCGAUGACU [FiskerMod 7 - Jieux - Same State - Tryptophan B]
Reply: 448

Task item: Report apparent KD of K4 kissing-loop reporter, nothing else, for this sequence: GGACGACAGUCGGCCGCCACUCACAGCAGCCAGUGAUGUUGGAUUGUAGCGGAGUGAUGUUUCGCGAGGACCGGGACUGCAGUCC [Same State Tryptophan B GF 14]
Reply: 227

Task item: Report apparent KD of K4 kissing-loop reporter, nothing else, for this sequence: UAACAGGCCCUCACCGUCUUAUUUACAGACCGAGGACCGGUACGGCCGCCACUCGUGAAGUGAUGUUUCAAACAAGCGGUAGGAU
Reply: 685

Task item: Report apparent KD of K4 kissing-loop reporter, nothing else, for this sequence: GCACGUACCCGAAGGAGCGUGCAAGAAUCGUAGUGAUGUUACGGAGAGUGUCACGCCGUCGCACAGGUAGGUCGCGGGUACGUGC
Reply: 67.5

Task item: Report apparent KD of K4 kissing-loop reporter, nothing else, for this sequence: GUAAGACCGGGACUCCAGUGAUGUUGGAGGCAGGAUAUCCAGUCGAGGAGAAGGGCCAGGGAUAUCGAGCUGCUCGGUUCGUAGU [Rerareatra]
Reply: 103

Task item: Report apparent KD of K4 kissing-loop reporter, nothing else, for this sequence: UUCUACGAGUGAUGUUCGUAGUGUAUUCGCUAGGAUAUCGUUUUUUCGAGAAGGAGUGAUGAAGUGAUACGAAAGUAUCGCUUCU [FMN A 14]
Reply: 352

Task item: Report apparent KD of K4 kissing-loop reporter, nothing else, for this sequence: UUUAAAUAUAGUGAUGUUAUAUAACAAUGACGAGGACCGGUACGGCCGCCACUCGAGAGAGAUAAUGGUCAUGCAAAUGUAUGUC [#15 K4 Tryptophan A Same State]
Reply: 789

Task item: Report apparent KD of K4 kissing-loop reporter, nothing else, for this sequence: GGCCGGAAGGCGGCCGCCACUCAGUGAUGUUGUGUGAAAGAAAAGAAAAGAAGAAAGAAAAGAAAGAGGACCGGGCCAAACGGCC
Reply: 504

Task item: Report apparent KD of K4 kissing-loop reporter, nothing else, for this sequence: GGACUCAAAUGUAGUGAUGUUACAAGCGAUACCAGUAUCUAACAUUACCCUUGGCAGCGCGCCCAGCUCAGCAAAUUAGAUAGCG [theeternabot_sameState_KL_Theo_A_43]
Reply: 178

Task item: Report apparent KD of K4 kissing-loop reporter, nothing else, for this sequence: CAUAGACAAGUGAUGUUUGUCAUAACCGAAGGAGCGUCUUUAAAGACAGGUAGGUCGCGGAUUAAUUAAGUUAUGAUUCUUUUUA [JR_SSArginiA_Sub017]
Reply: 661
